Reported GI50 is given for each of the following compounds.
Test system: IGROV1 ovarian
procedure-summary: NCI tumour cell line growth inhibition, 48 h

• CC[C@@H](C(=O)[C@H](C)[C@H](O)[C@@H](C)[C@H]1O[C@H]([C@@H](CC)C(=O)N(CC)CC)CC[C@H]1C)C1O[C@]2(C=C[C@@H](O)[C@]3(CC[C@@](C)([C@H]4CC[C@](O)(CC)[C@H](C)O4)O3)O2)[C@H](C)C[C@@H]1C (stereo partly specified) = 2.73 µM
• NC1CCCCC1N.O=[Se]([O-])[O-].[Pt+4] (stereo unspecified) = 2.11 µM

Q: Please state recorded GI50 (tested on IGROV1 ovarian) of `COc1cc2ncnc(Nc3cccc(Cl)c3F)c2cc1OC(=O)N1CCN(C)C[C@H]1C`
A: 0.888 µM

Q: Provide the documented GI50 with IGROV1 ovarian as the system for `S=C(NCCNC(=S)[S][Sn]([c]1ccccc1)([c]1ccccc1)[c]1ccccc1)[S][Sn]([c]1ccccc1)([c]1ccccc1)[c]1ccccc1`
A: 0.0429 µM

Q: // lookup GI50 | system=IGROV1 ovarian | key= `O=C(/C(=C/c1ccc([N+](=O)[O-])cc1)SCc1ccc(Cl)cc1)c1ccc(F)cc1`
A: 3.93 µM

Q: What is its GI50 for IGROV1 ovarian? Entry: `C=C1C(=O)O[C@H]2C[C@@H]1CC/C(C)=C/CC/C(C)=C/CC[C@@]2(C)O`
A: 23.1 µM

Q: Request: GI50, test system IGROV1 ovarian, entry `COc1cc2c(cc1Cc1cccc(Cl)c1F)c(=O)c(C(=O)O)cn2[C@@H](CO)C(C)C`
A: 2.42 µM

----------
Entries annotated with measured TGI
Tested on: MOLT-4 leukemia
procedure-summary: NCI tumour cell line growth inhibition, 48 h

For orientation, consider the following solved cases.
* COc1cc2c(cc1Cc1cccc(Cl)c1F)c(=O)c(C(=O)O)cn2[C@@H](CO)C(C)C | 18.5 µM
* C[C@]12CC[C@H]3[C@@H](CC=C4C[C@@H](O)CC[C@@]43C)[C@@H]1C/C(=C/c1ccccc1)[C@@H]2O | > 100 µM
* O=C(OCc1ccc([N+](=O)[O-])cc1)N1c2ccccc2[C@@]23O[C@]24CCC[C@H]3C#C/C=C\C#C[C@H]14 | > 100 µM
* O=C(OC1CCC2OOC1O2)c1ccc([N+](=O)[O-])cc1 (centres undefined) | > 100 µM
* Cc1ccc(-c2n[nH]c(=O)n2NC(=O)c2ccccc2C(=O)O)cc1 | > 100 µM
* O=c1cc(CSc2c(-c3ccccc3)c(=O)n(-c3ccccc3)c(=S)n2-c2ccccc2)[nH]c(=O)[nH]1 | > 100 µM
* CCOC(=O)C1(C(=O)OCC)C[C@@H](C)[C@@H](O)C1 | > 100 µM
* Cc1cc(C)c(O)c(CN2CCN(C(C)C)CCN(C(C)C)CC2)c1 | 47.3 µM

Q: // lookup TGI for `O=C(O)c1cc(=O)c2c(OCC(O)COc3cccc4oc(C(=O)O)cc(=O)c34)cccc2o1`
A: > 100 µM

----------
Each entry below lists one item and its recorded TGI value.
System: SNB-19 CNS
procedure-summary: NCI tumour cell line growth inhibition, 48 h

Answered cases to consult:
- NC1CCCCC1N.O=[Se]([O-])[O-].[Pt+4] (stereo not given): > 100 µM
- O=C(NCc1cccnc1)C1COc2cc(-c3cc(=O)c4ccccc4o3)ccc2O1 (stereo not given): > 67.2 µM
- O=C(c1ccccc1)C(c1ccccc1)C1(O)C(=O)Nc2ccc([N+](=O)[O-])cc21 (stereo not given): > 100 µM
- Cc1ccc(C(c2c(O)c3ccccc3n(-c3ccccc3)c2=O)c2c(O)c3ccccc3n(-c3ccccc3)c2=O)cc1: > 100 µM
- C=C1C(=O)O[C@H]2C[C@@H]1CC/C(C)=C/CC/C(C)=C/CC[C@@]2(C)O: > 100 µM

Q: Param item = CCC1CCN=C(NS(=O)(=O)c2cc(C)c(Cl)cc2S)N1 (stereo not given) ; retrieve measured TGI.
A: > 100 µM

Q: Which value of TGI has been reported for COc1ccc(OC)c(C2CCc3c(cnc4nc(N)nc(N)c34)C2)c1 (stereo not given) in the records?
A: 21.5 µM

Q: Field request: TGI | item: `O=C(NNC1=NCCCCN1)Nc1ccc(Cl)cc1`
A: > 100 µM

Q: // query TGI value for entry Cn1cc(C2=C(c3c4n(c5ccccc35)CCC(CN)C4)C(=O)NC2=O)c2ccccc21 (stereo not given)
A: 9.26 µM

Q: TGI for Clc1ccc(C(Cc2cccc(Cl)c2)c2c(Cl)nc(N3CCNCC3)nc2Cl)cc1 (stereo not given) ?
A: 30.5 µM

Q: Name the reported TGI value associated with the compound `c1ccc2cc(NCNc3ccc4ccccc4c3)ccc2c1`
A: > 100 µM

Q: Need TGI, item COc1ccc(-c2c3c(n(C4OC(COC(C)=O)C(OC(C)=O)C(OC(C)=O)C4OC(C)=O)c(=S)c2C#N)CCC3)cc1 (stereo not given)
A: > 100 µM

Q: Give its TGI value. Item: `O=C(O)c1nc2ccc(C(F)(F)F)cc2nc1NCc1ccc(Cl)c(Cl)c1`
A: 25.1 µM

Q: Form field: reported TGI of `CC(=O)Oc1ccc2cc(Oc3ccc(Cl)c(Cl)c3)c(=O)oc2c1`
A: > 100 µM

Q: Item under review: `Cc1nn2c(nc1=O)sc1ccc3ccccc3c12` . Reported TGI?
A: > 100 µM

Q: What value of TGI has been recorded for this entry: CC1CC/C(=C\c2ccc(N(C)C)cc2)C2=C1C(c1ccc(N(C)C)cc1)NC(=S)N2 (stereo not given)
A: > 100 µM

Q: Reported TGI, compound CCN1C(=O)N(CC)C2C1NN=c1s/c(=C\c3ccco3)c(=O)n12 (stereo not given) : ____
A: > 100 µM

Q: I would be grateful if you could share the reported TGI for CC(=O)OCC1OC(n2c3c(cc(C#N)c2=S)CCC3)C(OC(C)=O)C(OC(C)=O)C1OC(C)=O (stereo not given) .
A: > 100 µM

Q: Quick check: TGI of Cc1[nH]c(=O)[nH]c(=O)c1/C=C/C(=O)NC(CO)CS(=O)Cc1ccccc1 (stereo not given) ?
A: > 300 µM

Q: Tell me the measured TGI of O=c1[nH]c(=O)c2cc3cc(C4CC(O)C(CO)O4)ccc3cc2[nH]1 (stereo not given) , please.
A: > 100 µM

----------
Tested on: MALME-3M melanoma
procedure-summary: NCI tumour cell line growth inhibition, 48 h; in the data active = GI50 below about 0.43 µM; inactive = the rest
Where a SMILES comes first, the peptide text is derived from it. Bridges are numbered along the chain shown (N, C = ends). [ ]: non-standard residue; d: D form. The star is where a group is joined. ξ: configuration not given here. ξDab(CH2SO3H) = NC(CCNCS(=O)(=O)O)C(=O)O; Heptanoyl(6-Me) = CC(C)CCCCC(=O)*; Dab = NCC[CH](N)C(=O)O
Output constraint: value belongs to active, inactive

- CC(C)(C)[Si](C)(C)OC1[C@@H](O[Si](C)(C)C(C)(C)C)[C@@H](CNC(=O)NC(=O)CF)O[C@H]1n1cnc2c(NC(=O)Nc3ccccc3)ncnc21 (stereo not given in full): inactive

Q: Test call for this compound, please: `COCCNc1ccc2c3c(cccc13)C(=O)N(CCN(C)C)C2=O`
A: inactive

Q: Recorded call for `CCCCCCCCC/C(=N\NC(=O)c1ccncc1)c1ccc(O)c(O)c1O` ?
A: inactive

Q: GET /call?item= `CCNC(=O)Nc1ccc(Oc2ccnc3ccc4c(ccn4C)c23)cc1` returns the recorded outcome of this test.
A: inactive

Q: Dear all, I need the recorded test outcome for N#C[Se]CCN1C(=O)C2C(C1=O)[C@H]1C=C[C@@H]2S1 (stereo not given in full) , thank you.
A: inactive

Q: Hi, sorry to bother you, what did the test record for `S=C(NCCNC(=S)[S][Sn]([c]1ccccc1)([c]1ccccc1)[c]1ccccc1)[S][Sn]([c]1ccccc1)([c]1ccccc1)[c]1ccccc1` ?
A: active

Q: Tell me the recorded outcome of this test for `N=C(N)SCc1c2ccccc2c(CSC(=N)N)c2ccccc12` .
A: inactive

Q: What is the recorded call for this compound in the test? Cn1cc(C2=C(c3c4n(c5ccccc35)CCC(CN)C4)C(=O)NC2=O)c2ccccc21 (stereo not given)
A: inactive

Q: Short answer needed: outcome of this test for `N/C(=N/N=C/c1ccccc1)N/N=C\c1ccccc1` ?
A: inactive

Q: Look up the recorded call for `CCOC(=O)c1cc(C(=O)c2cc(OC)c(OC)c(OC)c2)n2c1ccc1ccccc12` in this test.
A: inactive

Q: Per the records of this test, what outcome belongs to `COc1cccc(/C=N/NC(=O)c2ccccc2N2CCCC2)c1O` ?
A: inactive

Q: Which outcome was entered for the compound `COc1cc(/C(=C2/O[C@@H]([C@H]3COC(C)(C)O3)[C@H]3OC(C)(C)O[C@@H]23)c2ccc3ccccc3c2)cc(OC)c1OC` in this test?
A: inactive

Q: Please share the test call associated with CN1CCC2(CC1)NC(=O)c1c(c3ccc(Cl)c(Cl)c3n1C)C2C#N (stereo not given) .
A: inactive

Q: Which outcome was entered for the compound CCC(C)C1NC(=O)C(CCNCS(=O)(=O)O)NC(=O)C(NC(=O)C(CCNCS(=O)(=O)O)NC(=O)C(NC(=O)C(CCNCS(=O)(=O)O)NC(=O)CCCCC(C)C)C(C)O)CCNC(=O)C(C(C)O)NC(=O)C(CCNCS(=O)(=O)O)NC(=O)C(CCNCS(=O)(=O)O)NC(=O)C(C(C)CC)NC1=O (stereo not given) ({Heptanoyl(6-Me)}-[ξDab(CH2SO3H)]T[ξDab(CH2SO3H)][Dab][ξDab(CH2SO3H)]II[ξDab(CH2SO3H)][ξDab(CH2SO3H)]T; lactam 4-C; configuration not given here) in this test?
A: inactive

Q: Please let me know the test result on file for `COc1cc2ncnc(Nc3cccc(Cl)c3F)c2cc1OC(=O)N1CCN(C)C[C@H]1C` .
A: inactive
